test: chemical genetic growth profiling, strain panel (AID 1159580);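 note: tested at 20 µM; growth read once vehicle control cultures reached saturation at 30 °C; 1 = growth at the plate median or of vehicle wells; lower values mean less growth of the strain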; conditions: S. cerevisiae deletion strains, growth OD, locus YKL085W, strain MDH1, hits give low values
In all, about 5,500 compounds went through this assay and about 2,000 (36%) were called active. Not shown: some 18% with an inconclusive outcome. This is one part of the list.
# normalized growth per entry

Sample records with normalized growth:
COC[C@]12CN(C=O)C3[C@@H]4[C@H](OC)C1[C@]3(C1CC3(O)C(OC)C(O)C4(OC(C)=O)C1C3OC(=O)c1ccccc1)[C@@H](OC)C[C@H]2O (stereo partly drawn) :: 1.01 (inactive)
CC(=O)O[C@H]1C[C@@]2(C)[C@@H](C[C@@H](O)C3[C@]2(C)CC[C@H]2[C@H](C)[C@H](O)CC[C@]32C)/C1=C(/CCC=C(C)C)C(=O)O (stereo partly drawn) :: 0.997 (inactive)
COc1cc2c(cc1OC)C1(O)C(=O)c3ccc(O)c(C(=O)O)c3OC1CO2 (stereo not drawn) :: 0.975 (inactive)

Task: // returns reported normalized growth for input COc1ccc2c(c1)OCC(Cc1ccc(OC)c(O)c1)C2=O (stereo not drawn)
Output: 0.969 (inactive)

Task: // returns reported normalized growth for input CCN1C[C@@]2(COC)C3[C@@H](OC)[C@H]4[C@@H]1[C@]3(C(OC)C[C@H]2O)C1C[C@@]2(O)[C@H](OC(=O)c3ccccc3)C1[C@]4(OC(C)=O)[C@@H](O)[C@@H]2OC (stereo partly drawn)
Output: 1.03 (inactive)

Task: // returns reported normalized growth for input COc1ccc2c(c1)OCC(Cc1ccc(OC)c(OC)c1)C2=O (stereo not drawn)
Output: 0.995 (inactive)

Task: // returns reported normalized growth for input COc1ccc2c(c1)OCC(Cc1ccc(OC)c(OC(C)=O)c1)C2=O (stereo not drawn)
Output: 0.982 (inactive)

Task: // returns reported normalized growth for input COC1=CC(=O)OC(CCc2ccc(OC)c(OC)c2)C1 (stereo not drawn)
Output: 1.01 (inactive)

Where these numbers come from: PubChem BioAssay AID1159580
